# Tested on: 282377-053-R-J1-PDC complex spheroid viability
# Protocol summary: Anticancer human tumor 282377-053-R-J1-PDC patient-derived colon adenocarcinoma cell line growth inhibition [RAS]
# Measurement conditions: second compound 0.00316 µM; first compound 0.316 µM; hits give low values
Measure: viability, T/C (%)
Answers are plain numbers, in %.

Worked cases, viability, T/C given:
NC1c2ccccc2OC12CCN(c1cnc3c(N4CCCc5ncccc54)n[nH]c3n1)CC2 (stereo not drawn) + C=CC(=O)N1CCN(c2nc(OCC3CCCN3C)nc3c(F)c(-c4nc(N)cc(C)c4C(F)(F)F)c(Cl)cc23)C(C)C1 | 102
C[C@@H](NC(=O)c1ncnc(N)c1Cl)c1ncc(C(=O)Nc2cc(C(F)(F)F)c(Cl)cn2)s1 + C=CC(=O)N1CCN(c2nc(OCC3CCCN3C)nc3c(F)c(-c4nc(N)cc(C)c4C(F)(F)F)c(Cl)cc23)C(C)C1 | 95.4

// moving on: another record for viability, T/C
I am curious: what viability, T/C value has been reported for C=CC(=O)Nc1cc(Nc2nccc(-c3cn(C)c4ccccc34)n2)c(OC)cc1N(C)CCN(C)C + C=CC(=O)N1CCN(c2nc(OCC3CCCN3C)nc3c(F)c(-c4nc(N)cc(C)c4C(F)(F)F)c(Cl)cc23)C(C)C1 ?
112

----------
# System: 282377-053-R-J1-PDC complex spheroid viability
# Protocol summary: Anticancer human tumor 282377-053-R-J1-PDC cell line growth inhibition [RAS];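 also: spheroids exposed to agents for seven days before readout; luminescence viability as percent of DMSO vehicle control wells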
# Measurement conditions: second compound 0.0949 µM; first compound 0.00316 µM; hits give low values
Measure: viability, T/C (%)
Answers are plain numbers, in %.

Examples with their reported viability, T/C follow.
CCN1CCN(Cc2ccc(Nc3ncc(F)c(-c4cc(F)c5nc(C)n(C(C)C)c5c4)n3)nc2)CC1 + CCn1c(-c2cc(N3CCN(C)CC3)cnc2C(C)OC)c2c3cc(ccc31)-c1csc(n1)CC(NC(=O)C1CC1C)C(=O)N1CCCC(N1)C(=O)OCC(C)(C)C2 | 98.8
Nc1ccn(C2OC(CO)C(O)C2(F)F)c(=O)n1 (stereo not drawn) + CCn1c(-c2cc(N3CCN(C)CC3)cnc2C(C)OC)c2c3cc(ccc31)-c1csc(n1)CC(NC(=O)C1CC1C)C(=O)N1CCCC(N1)C(=O)OCC(C)(C)C2 | 104
CC(C)n1nc(-c2ccc3oc(N)nc3c2)c2c(N)ncnc21 + CCn1c(-c2cccnc2C(C)OC)c2c3cc(ccc31)N1CCOC(CC(NC(=O)C(C(C)C)N(C)C(=O)C3(F)CCN(C(=O)C#CC(C)(C)N(C)C)CC3)C(=O)N3CCCC(N3)C(=O)OCC(C)(C)C2)C1 | 86.9
C=CC(=O)N1CCN(c2nc(OCC3CCCN3C)nc3c(F)c(-c4nc(N)cc(C)c4C(F)(F)F)c(Cl)cc23)C(C)C1 (stereo not drawn) + CCn1c(-c2cc(N3CCN(C)CC3)cnc2C(C)OC)c2c3cc(ccc31)-c1csc(n1)CC(NC(=O)C1CC1C)C(=O)N1CCCC(N1)C(=O)OCC(C)(C)C2 | 124
CC(C)n1nc(-c2ccc3oc(N)nc3c2)c2c(N)ncnc21 + CCn1c(-c2cc(N3CCN(C)CC3)cnc2C(C)OC)c2c3cc(ccc31)-c1csc(n1)CC(NC(=O)C1CC1C)C(=O)N1CCCC(N1)C(=O)OCC(C)(C)C2 | 86.9
C=CC(=O)Nc1cc(Nc2nccc(-c3cn(C)c4ccccc34)n2)c(OC)cc1N(C)CCN(C)C + CCn1c(-c2cc(N3CCN(C)CC3)cnc2C(C)OC)c2c3cc(ccc31)-c1csc(n1)CC(NC(=O)C1CC1C)C(=O)N1CCCC(N1)C(=O)OCC(C)(C)C2 | 95
O=C(c1ccc(F)c(F)c1Nc1ccc(I)cc1F)N1CC(O)([C@@H]2CCCCN2)C1 + CCn1c(-c2cc(N3CCN(C)CC3)cnc2C(C)OC)c2c3cc(ccc31)-c1csc(n1)CC(NC(=O)C1CC1C)C(=O)N1CCCC(N1)C(=O)OCC(C)(C)C2 | 75.9

Attention now shifts to the item below.
Please give the measured viability, T/C for this molecule: C=CC(=O)Nc1cc(Nc2nccc(-c3cn(C)c4ccccc34)n2)c(OC)cc1N(C)CCN(C)C + CCn1c(-c2cccnc2C(C)OC)c2c3cc(ccc31)N1CCOC(CC(NC(=O)C(C(C)C)N(C)C(=O)C3(F)CCN(C(=O)C#CC(C)(C)N(C)C)CC3)C(=O)N3CCCC(N3)C(=O)OCC(C)(C)C2)C1
95.8
